Biological target: Peptidyl-prolyl cis-trans isomerase FKBP1A (Homo sapiens)
Test: Binding affinity to FKBP12 PPI domain (unknown origin) in water bulk solution by fluorescence spectrophotometric analysis relative to FK506
Observation type: Ratio
The response must contain the number and no unit.

Below, 2 compounds whose answers are already recorded.
CCC(C)(C)C(=O)C(=O)N1CCCC[C@H]1C(=O)O[C@H](CCc1ccccc1)c1ccccc1 :: 25
CCCC(CCc1ccccc1)NC(=O)[C@@H]1CCCCN1C(=O)C(=O)c1ccccc1 (mixture of isomers) :: 5

So for CCC[C@H](CCc1ccccc1)OC(=O)[C@@H]1CCCCN1C(=O)C(=O)c1ccccc1 , the logged Ratio turned out to be 1.6

Sample CCC[C@@H](CCc1ccccc1)OC(=O)[C@@H]1CCCCN1C(=O)C(=O)c1ccccc1 ; Ratio observed: 1.1

====

Molecular target: Peptidyl-prolyl cis-trans isomerase FKBP1A (Homo sapiens) (UniProt P62942)
Sequence (P62942 whole entry, the tested form may be a part): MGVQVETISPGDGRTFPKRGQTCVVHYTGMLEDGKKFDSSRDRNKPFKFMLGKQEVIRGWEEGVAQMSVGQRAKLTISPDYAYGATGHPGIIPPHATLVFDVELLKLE
Test: Binding affinity to FKBP12 PPI domain (unknown origin) in water bulk solution by fluorescence spectrophotometric analysis relative to FK506
Observation type: Ratio
Output spec: single numeric token, no unit.

COc1cc(OC)c(C(=O)C(=O)N2CCCC[C@H]2C(=O)OC(CCCc2ccccc2)CCCc2ccncc2)c(OC)c1 (some centres undefined) :: 1.2

Recorded Ratio (molecule C=CC[C@@H]1/C=C(\C)C[C@H](C)C[C@H](OC)[C@H]2O[C@@](O)(C(=O)C(=O)N3CCCC[C@H]3C(=O)O[C@H](/C(C)=C/[C@@H]3CC[C@@H](O)[C@H](OC)C3)[C@H](C)[C@@H](O)CC1=O)[C@H](C)C[C@@H]2OC ): 1

For CCC(C)(C)C(=O)C(=O)N1CCCC[C@H]1C(=O)O[C@@H](CCc1ccccc1)c1ccccc1 the molecule record lists Ratio as 750

For CO[C@H]1C[C@@H]2CC[C@@H](C)[C@@](O)(O2)C(=O)C(=O)N2CCCC[C@H]2C(=O)O[C@H]([C@H](C)C[C@@H]2CC[C@@H](O)[C@H](OC)C2)CC(=O)[C@H](C)/C=C(\C)[C@@H](O)[C@@H](OC)C(=O)[C@H](C)C[C@H](C)/C=C/C=C/C=C/1C the molecule record lists Ratio as 0.5
